Assay info: folding enthalpy; higher = less favourable; fluorescence melt of hairpins on a sequencing array, two-state fit
Condition info: sodium 0.088 M
Test readout: folding enthalpy (kcal/mol)
Number in kcal/mol, nothing else.

Please review the entries below; each comes with its answer.
sequence_record="GATCATAATAATGATC ((((((....))))))" test_readout="folding enthalpy" val=-35.4
sequence_record="GCCGAGGGAAACCCCGAC (.((.((....)).)).)" test_readout="folding enthalpy" val=-13.8
sequence_record="GATCTGATAACAGATC ((((((....))))))" test_readout="folding enthalpy" val=-35.7
sequence_record="GATCCACTCCTGGATC ((((((....))))))" test_readout="folding enthalpy" val=-38.4
sequence_record="GCAACCGAAAGGTCTGC ((((((....))).)))" test_readout="folding enthalpy" val=-22.7

query: // query folding enthalpy value for entry CGACCGGAAACGGTTTCG ((((((....)))..)))
result: -10.3

query: # iterate: GATCATGTCAATGATC ((((((....))))))
result: -40

query: # iterate: GCCCCCGAAAGGGGAGGC ((((((....)))..)))
result: -13.8

###

Assay info: melting temperature; fluorescence melt of hairpins on a sequencing array, two-state fit, raised by 9.35 °C to match UV melts
Condition info: sodium 0.088 M
Test readout: Tm (°C)
Number in °C, nothing else.

sequence_record="GACCTACGAAAGTATGTC (((.(((....))).)))" val=41
sequence_record="GATCGCGGAAACGCGACC (.(((((....))))).)" val=49.2
sequence_record="CGACCGGAAACGGTTTCG ((((((....)))..)))" val=33.5
sequence_record="GATCTATAGTTAGATC ((((((....))))))" val=39.4
sequence_record="GGTTTCGGAAACGAAGCC ((.((((....)))).))" val=51.4

query: // query Tm value for entry GCTCAGCGAAAGCAGAGC ((((.((....)).))))
result: 67.3

query: # iterate: GGTAAGAAATTACC (((((....)))))
result: 34.3

query: # iterate: CGCAGCCGGAAACGGGCG (((..(((....))))))
result: 47.9

query: # iterate: GCTGGGAAACCAGC (((((....)))))
result: 65.4

query: # iterate: GCCGAGCGAAAGCGTGGC (((..((....))..)))
result: 68.3

query: # iterate: GATGGTGGAAACGCCATC (((((.(....).)))))
result: 53.4

query: # iterate: GCTACCGAAAGGTCAAGC ((((((....)))..)))
result: 39.1

query: # iterate: CGGGCGGAAACGCTCCCG ((((((....)))..)))
result: 48.1

###

Assay info: folding enthalpy; higher = less favourable; fluorescence melt of hairpins on a sequencing array, two-state fit
Condition info: sodium 0.088 M
Test readout: folding enthalpy (kcal/mol)
Number in kcal/mol, nothing else.

query: // query folding enthalpy value for entry CGTGGACGGAAACGTACG (((..(((....))))))
result: -20.3

query: # iterate: GGAACACCGAAAGGTTCC (((..(((....))))))
result: -18.4
